Values of Kd reported for PIKfyve (Homo sapiens (Human), UniProt Q9Y2I7) appear below.

Compound Structure String	Result
Cc1cccc(/C=N/Nc2nc(N3CCOCC3)c3cc(-c4ccncc4)sc3n2)c1	1 to 10 nM
Cc1cccc(/C=N/Nc2nc(N3CCOCC3)c3sc(C(=O)Nc4ccncc4)cc3n2)c1	1 to 10 nM
Cc1cccc(/C=N/Nc2nc(N3CCOCC3)c3sc(C(=O)Nc4cccnc4)cc3n2)c1	≤ 1 nM
Cc1cccc(/C=N/Nc2nc(N3CCOCC3)c3sc(-c4cnco4)cc3n2)c1	1 to 10 nM
Cc1cccc(/C=N/Nc2nc(N3CCOCC3)c3sc(C(=O)NC4COC4)cc3n2)c1	≤ 1 nM

The measured Kd that Cc1cccc(/C=N/Nc2nc(N3CCOCC3)c3cc(-c4cnco4)sc3n2)c1 showed for PIKfyve (Homo sapiens (Human), UniProt Q9Y2I7) is ≤ 1 nM

The measured Kd that Cc1cccc(/C=N/Nc2nc(N3CCOCC3)c3sc(-c4c(C)noc4C)cc3n2)c1 showed for PIKfyve (Homo sapiens (Human), UniProt Q9Y2I7) is ≤ 1 nM

The measured Kd that Cc1cccc(/C=N/Nc2nc(N3CCOCC3)c3sc(-c4c(C)n[nH]c4C)cc3n2)c1 showed for PIKfyve (Homo sapiens (Human), UniProt Q9Y2I7) is ≤ 1 nM

The measured Kd that Cc1cccc(/C=N/Nc2nc(N3CCOCC3)c3sccc3n2)c1 showed for PIKfyve (Homo sapiens (Human), UniProt Q9Y2I7) is 1 to 10 nM

The measured Kd that Cc1cccc(/C=N/Nc2nc(N3CCOCC3)c3sc(-c4cnn(C)c4)cc3n2)c1 showed for PIKfyve (Homo sapiens (Human), UniProt Q9Y2I7) is ≤ 1 nM

The values you see were collected from patent US11603372B2.
